- tested.system: MOR (Homo sapiens)
- Sequence (P35372 whole entry): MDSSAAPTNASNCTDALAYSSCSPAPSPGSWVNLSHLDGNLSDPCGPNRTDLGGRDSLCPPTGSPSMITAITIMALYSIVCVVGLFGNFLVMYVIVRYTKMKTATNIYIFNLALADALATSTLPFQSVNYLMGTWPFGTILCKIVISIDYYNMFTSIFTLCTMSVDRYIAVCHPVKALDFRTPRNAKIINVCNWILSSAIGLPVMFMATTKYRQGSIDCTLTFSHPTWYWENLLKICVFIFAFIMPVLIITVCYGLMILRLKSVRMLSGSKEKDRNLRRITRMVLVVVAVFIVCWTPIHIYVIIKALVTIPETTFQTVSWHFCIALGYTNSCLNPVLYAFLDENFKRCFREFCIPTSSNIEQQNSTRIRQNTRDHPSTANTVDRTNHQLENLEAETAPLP
- assay.name: PDSP radioligand binding assay
- details: Table 5
pKi: −log10 of the molar value.
property.measured: pKi

| cpd.smiles | test.result |
| --- | --- |
| COc1ccc(N2CCN(CCCNC(=O)Cn3c(=O)c4cccn4c4c(C)ccnc43)CC2)cc1 | 5.80 |

====

- tested.system: 5ht6 (Homo sapiens, UniProt P50406)
- Sequence (P50406 whole entry, species assumed): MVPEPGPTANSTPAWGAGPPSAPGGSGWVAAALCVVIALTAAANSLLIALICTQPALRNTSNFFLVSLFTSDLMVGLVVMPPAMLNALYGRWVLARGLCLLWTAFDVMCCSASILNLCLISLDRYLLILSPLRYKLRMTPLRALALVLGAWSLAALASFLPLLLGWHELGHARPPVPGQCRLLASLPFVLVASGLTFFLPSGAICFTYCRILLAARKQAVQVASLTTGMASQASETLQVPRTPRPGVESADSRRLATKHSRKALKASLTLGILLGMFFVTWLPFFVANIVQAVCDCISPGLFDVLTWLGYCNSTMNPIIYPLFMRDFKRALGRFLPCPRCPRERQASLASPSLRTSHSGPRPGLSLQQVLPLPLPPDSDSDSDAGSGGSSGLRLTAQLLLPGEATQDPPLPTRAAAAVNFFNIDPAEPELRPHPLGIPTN
- assay.name: PDSP radioligand binding assay
- details: Table 5
pKi: −log10 of the molar value.
property.measured: pKi

| compound | tested.system | test.result |
| --- | --- | --- |
| COc1ccc(N2CCN(CCCNC(=O)Cn3c(=O)c4cccn4c4c(C)ccnc43)CC2)cc1 [Compound 1{3}] | 5ht6 (Homo sapiens, UniProt P50406) | < 5.00 |
